Values from PubChem BioAssay (NCI)

Each entry below carries its recorded growth inhibition.
Test: NCI Yeast Anticancer Drug Screen. Data for the mgt1 strain (AID 153)
Conditions: S. cerevisiae mgt1 mutant growth inhibition; at 3.7 µM; hits give high values
About 79,000 compounds went through this panel and 15% of them were active in at least one assay; those are over-represented in the sample as a whole.
Field format: number, assumed %, no unit text.

Use these answered entries as a reference point.
C=C(CN(C)C)C(=O)c1cc(C)ccc1C    19
O=c1ssc2ncccc12    10
c1ccc2c(c1)NC(NC1Nc3ccccc3N1)N2    -7

Look up growth inhibition for this compound: `O=CC=C(c1ccccc1)c1ccccc1` -6

If you can, please state the reported growth inhibition value of `CN(C)Cc1cc(N=Nc2ccc(Cl)cc2)cc(CN(C)C)c1O` . 12

What value of growth inhibition has been reported for the following compound? `Cc1ccc(CCC2=CCCc3c2ccc2ccccc32)cc1` -3

Find the recorded growth inhibition belonging to CC1(C)C(=O)OC(n2cc(F)c(=O)[nH]c2=O)C1=O (configuration not stated) and report it. 32

For `O=[N+]([O-])c1ccc([N+]2=NC(c3ccccc3)=NN(c3ccccc3)C2)cc1` , what is its reported growth inhibition? 5

I would be grateful if you could share the reported growth inhibition for CCCCCCCCC/C=C/C=C/C(=O)NCC(=O)NC1C(O)C(O)C(Nc2ncnc3nc[nH]c23)OC1C(O)CO (configuration not stated) . -22

Find the recorded growth inhibition belonging to `CCCCN(CCCC)CCSc1ccc(Cl)cc1` and report it. -8

Fill blank: measured growth inhibition of the compound CCC(C(=O)O)C1=C(c2ccccc2)CCc2ccccc21 (configuration not stated) is ____. 12

Dear colleague, I am looking for the recorded growth inhibition of the following compound: `O=[N+]([O-])c1cccc2nc3ccccc3c(NCCCN3CCOCC3)c12` 43
